# Experimental target: T1, human MSLN-FL-his protein (human, UniProt Q13421 296-580)
# T1 construct: also called hMSLN-FL-his; human MSLN full-length protein; not shown: His tag
# T1 sequence (Q13421 other isoform, or with tags, fused parts or gaps): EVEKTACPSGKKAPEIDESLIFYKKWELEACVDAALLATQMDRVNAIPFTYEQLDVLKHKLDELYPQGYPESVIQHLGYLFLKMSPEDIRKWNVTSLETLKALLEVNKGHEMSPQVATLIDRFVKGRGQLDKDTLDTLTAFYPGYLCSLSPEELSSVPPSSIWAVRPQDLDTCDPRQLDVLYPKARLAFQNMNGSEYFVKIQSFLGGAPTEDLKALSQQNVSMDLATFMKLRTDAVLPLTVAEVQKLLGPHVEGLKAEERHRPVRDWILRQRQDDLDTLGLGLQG
# Procedure details: ELISA, coated antigen; antibody 10 nM
Endpoint name: OD450
Please reply with the number alone, leaving off any unit.

{"columns": ["Binder", "OD450"],
 "data": [
  ["S009-F1.56.1 human-murine chimeric antibody (antibody, human IgG1, kappa, V domains shown, Chimeric IgG1/kappa) VH: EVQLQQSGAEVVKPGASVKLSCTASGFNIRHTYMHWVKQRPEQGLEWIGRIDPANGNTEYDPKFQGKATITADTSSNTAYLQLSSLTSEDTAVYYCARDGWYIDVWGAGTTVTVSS VL: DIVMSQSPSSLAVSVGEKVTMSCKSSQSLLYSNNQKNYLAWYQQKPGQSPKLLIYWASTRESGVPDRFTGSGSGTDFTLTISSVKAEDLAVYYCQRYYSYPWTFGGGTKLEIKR", 2.44]
]}

Next up:
Memo: S009-F1.35.24 human-murine chimeric antibody (antibody, human IgG1, kappa, V domains shown, Chimeric IgG1/kappa) VH: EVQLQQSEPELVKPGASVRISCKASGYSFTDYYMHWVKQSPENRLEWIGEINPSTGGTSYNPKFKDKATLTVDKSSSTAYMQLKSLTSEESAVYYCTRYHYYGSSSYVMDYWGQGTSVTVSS VL: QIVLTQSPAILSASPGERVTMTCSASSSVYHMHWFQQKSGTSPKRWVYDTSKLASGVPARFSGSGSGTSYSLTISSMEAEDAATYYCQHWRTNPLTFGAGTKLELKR , reported OD450: 2.27

Values were extracted from patent US20250250357A1.
